Test system: MDA-MB-468 multi-cell spheroids, viability
Assay: Anticancer human tumor MDA-MB-468 cell line growth inhibition [IpAb];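 note: spheroids exposed to agents for seven days; 100% = DMSO vehicle control viability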
Conditions: second compound 3.16 µM; first compound 1 µM; stronger effect = lower value
test.readout: viability, T/C (%)
Give a bare numeral; the unit % is implied.

What value of measured viability, T/C is listed for CCCS(=O)(=O)Nc1ccc(F)c(C(=O)c2c[nH]c3ncc(-c4ccc(Cl)cc4)cc23)c1F + CC(C)NCC(C(=O)N1CCN(c2ncnc3c2C(C)CC3O)CC1)c1ccc(Cl)cc1 ?
31.3

Please give the result for C=CCn1c(=O)c2cnc(Nc3ccc(N4CCN(C)CC4)cc3)nc2n1-c1cccc(C(C)(C)O)n1 + CC(C)NCC(C(=O)N1CCN(c2ncnc3c2C(C)CC3O)CC1)c1ccc(Cl)cc1 too.
1.82

And the next one, COc1c(OCCCN2CCOCC2)ccc2c3n(c(=NC(=O)c4cnc(N)nc4)nc12)CCN3 + CC(C)NCC(C(=O)N1CCN(c2ncnc3c2C(C)CC3O)CC1)c1ccc(Cl)cc1 ?
1.46
